Test Name: Acute toxicity in mice, single oral dose
Conditions Used: mouse, in vivo, p.o., 14-day observation
Structures can show the parent of a compound that is named as a salt.
Parameter: LD50 at 336 h

Use the examples below as a reference point.
{"Compound": "COc1ccc(N2CCN(CCOc3cc(C)ccc3C(C)C)CC2)cc1 [B.1115, dihydrochloride]", "LD50 at 336 h": "> 1000 mg/kg"}
{"Compound": "Cc1ccc(C(C)C)c(OCCN2CCN(c3ccccc3Cl)CC2)c1 [B 1299, hydrochloride]", "LD50 at 336 h": "> 1000 mg/kg"}
{"Compound": "Cc1ccc(C(C)C)c(OCCN2CCN(c3ccccc3OC(C)C)CC2)c1 [B.1399]", "LD50 at 336 h": "~500 mg/kg"}

Proceeding to the next compound to report its LD50 at 336 h.
Could you tell me which LD50 at 336 h is on file for Cc1ccc(C(C)C)c(OCCN2CCN(c3ccc(Cl)cc3)CC2)c1 [B.1191, dihydrochloride] ?
> 1000 mg/kg
